Tested on: HOP-62
Assay: NCI tumour cell line growth inhibition, 48 h
Activity calls are given as the source filed them. No stated cut-off is given here; in the data, active = GI50 up to about 1.1 µM and inactive = higher.
Outcome codes: active, inactive

INSERT INTO measurements (molecule, classname) VALUES
  ('CNC(=S)N/N=C(\C)c1cc(OC)c(OC)cc1O', 'inactive'),
  ('COc1cc2cc(C(=O)N3CC(CCl)c4ccc(NCCN)cc43)[nH]c2c(OC)c1OC (configuration not stated)', 'active'),
  ('C=CC(C)(C)N[C@@H](C(=O)N1CCC[C@H]1c1nc(-c2nc(C(=O)OCC=C(C)C)c(C)o2)c(C)o1)C(C)C', 'inactive'),
  ('CCOC(=O)N(CC)c1c(C(F)(F)F)cc(-c2ccccc2)[nH]c1=O', 'inactive'),
  ('CCCSc1nc(COC(=O)NC)c(COC(=O)NC)n1C', 'inactive'),
  ('O=C1Nc2ccc(Br)cc2/C1=C/C(=O)c1ccccc1', 'inactive'),
  ('N#C/N=C1/c2ccccc2/C(=N/C#N)c2cc(CO)ccc21', 'inactive');

---

Below, each of the molecules is paired with its reported GI50 value.
Tested on: A549
Assay: NCI tumour cell line growth inhibition, 48 h
Calls of active or inactive are those of the source. Rule as the data show it: active = GI50 up to about 1.1 µM and inactive = higher.
measuredQuantity: GI50

INSERT INTO assay_data (molecule, recordedmeasurement) VALUES
  ('COc1ccc(C(C2=C(C)C(=O)c3ccccc3C2=O)c2ccc(C(C)C)cc(=O)c2O)cc1 (stereo not drawn)', '3.55 µM (inactive)'),
  ('COc1ccc2c(C)c(Oc3c(Cl)c(Cl)c(O)c(C#N)c3C#N)oc2c1', '> 100 µM (inactive)'),
  ('CC(C)(C)C1=CC(=C(P(=O)(O)O)P(=O)(O)O)C=C(C(C)(C)C)C1=O', '> 50 µM (inactive)');

---

Tested on: BT-549
Experiment: NCI tumour cell line growth inhibition, 48 h
Activity calls are given as the source filed them. Rule as the data show it: active = GI50 up to about 1.1 µM and inactive = higher.
Outcome codes: TRUE for active, FALSE for inactive

INSERT INTO results (compound, classname) VALUES
  ('C=CCc1cccc2cc(C(=O)Nc3nc(C45CC6CC(CC(C6)C4)C5)cs3)c(=O)oc12', 'FALSE'),
  ('COc1cc2ccnc3c2c(c1OC)N(C)C=C3', 'FALSE'),
  ('Cc1cc(C2(c3cc(C)c(O)c4ncccc34)OC(=O)c3ccccc32)c2cccnc2c1O', 'TRUE'),
  ('CNc1ccc(Cl)cc1C(=O)N1CCC[C@H]1CO', 'FALSE'),
  ('O=C(O)C[S+]([O-])c1ccc2c3c(cccc13)C(=O)c1ccccc1-2 (configuration not stated)', 'FALSE'),
  ('CC[C@@]1(O)C(=O)OCc2c1cc1n(c2=O)Cc2c-1nc1ccccc1c2/C=N\NC(=O)C(N)Cc1ccc(O)cc1 (some centres not stated)', 'FALSE'),
  ('CCOC(=O)N(CC)c1c(C(F)(F)F)cc(-c2ccccc2)[nH]c1=O', 'FALSE');

---

Test system: SNB-75
Experiment: NCI tumour cell line growth inhibition, 48 h
Activity calls are given as the source filed them. Cut-off read from the data, not from the text of the source: active = GI50 up to about 1.1 µM and inactive = higher.
Outcome codes: active, inactive

INSERT INTO results (compound, classname) VALUES
  ('CC(C)(C)[Si](C)(C)OC1C(=O)C[C@H]2CCCC[C@@H]12 (stereo partly drawn)', 'inactive'),
  ('O=C(O)C1CCCN1Cc1ccc2c(c1)OCO2 (stereo not drawn)', 'inactive'),
  ('Cc1ccc2c(c1)-c1c3c(nn1C)-c1ccccc1SC3O2 (stereo not drawn)', 'inactive'),
  ('CCCSc1nc(COC(=O)NC)c(COC(=O)NC)n1C', 'inactive'),
  ('[N-]=[N+]=Nc1ccccc1-[n+]1noc([O-])c1Br', 'inactive'),
  ('CCc1cc(=O)n(/C(C)=C/c2ccccc2)n1C', 'inactive'),
  ('CC(=O)N1C(Nc2cccc3nc(C)ccc23)CCN1c1ccccc1 (stereo not drawn)', 'inactive'),
  ('CCOC(=O)c1cc2c3c(c(O)c(OC)c2s1)N(C(=O)c1cc2c4c(c(O)c(OC)c2s1)N(C(C)=O)CC4)CC3', 'inactive'),
  ('COc1cc(C2C3C=CC=C4CC=CC(=C43)C3CCC(=O)N32)cc(OC)c1OC (stereo not drawn)', 'inactive'),
  ('CC(C)(C)n1c(=O)[nH]n(C2NN=Cc3cccc4cccc2c34)c1=O (stereo not drawn)', 'inactive'),
  ('CCCCc1ccc(-n2sc3ncc([N+](=O)[O-])cc3c2=O)cc1', 'inactive'),
  ('[O-][S+](Cc1ccccc1)c1nc2ccccc2nc1-c1cccs1 (stereo not drawn)', 'inactive'),
  ('Cc1nc(-n2nc(-c3ccccc3)cc2-c2ccccc2)sc1C(/C=C/c1ccc([N+](=O)[O-])cc1)=N/NC(N)=S', 'inactive'),
  ('COC(=O)C1CCC(=O)N1CN(C(C)=O)c1ccccc1Cl (stereo not drawn)', 'inactive'),
  ('Cc1nc2c(=O)[nH]c3ccc(Cl)cc3c2o1', 'inactive'),
  ('COc1cccc2c1C(=O)c1c(O)c3c(c(O)c1C2=O)C[C@@](O)(C(=O)CO)CC3OC1CC(NCCOCC(OC(C)=O)OC(C)=O)C(O)C(C)O1 (stereo partly drawn)', 'active'),
  ('COC1CCC(=C2C(=O)OC(C)(C)OC2=O)N1 (stereo not drawn)', 'inactive'),
  ('COc1ccc(C2SCC(=O)N2c2ccc(-c3ccc(-n4c(-c5ccccc5)nc5ccccc5c4=O)cc3)cc2)cc1OC (stereo not drawn)', 'inactive'),
  ('COC(=O)C(N)CCCC(N)C(=O)NC(C)C(=O)NC(CCC(=O)NCCCNc1ccc([N+](=O)[O-])c2[nH]c3ccccc3c(=O)c12)C(N)=O (stereo not drawn)', 'inactive'),
  ('Sc1nnc(COc2ccc(Cl)cc2)n1-c1ccccc1', 'inactive'),
  ('CC1(C)C(=O)C(O)=CC2C1=CCC1C2(C)C(=O)CC2(C)C(C(C)(O)C(=O)CC(O)C(C)(C)O)C(O)CC12C (stereo not drawn)', 'active'),
  ('CCOC(=O)c1[nH]cc(C)c1-c1c[nH]c2ccccc12', 'inactive'),
  ('COC(=O)c1c(C(=O)OC)c(-c2ccccc2)n(-c2ccccc2)c(=O)c1-c1ccccc1', 'inactive'),
  ('Nc1nc(Nc2ccccc2)sc1C(=O)c1ccc(Cl)cc1', 'inactive'),
  ('C=CCSc1ncnc2c1ncn2C1OC(CO)C(O)C1O (stereo not drawn)', 'inactive'),
  ('CCOC(=O)C(C)N1C(=O)c2ccccc2S1(=O)=O (stereo not drawn)', 'inactive'),
  ('NNC(=O)C(O)C(O)C(=O)NN (stereo not drawn)', 'inactive'),
  ('COCCN(C(=O)c1ccccc1)C1CCC2(SCCS2)c2[nH]c3ccccc3c21 (stereo not drawn)', 'inactive'),
  ('O=C1C=C2CC[C@H]3[C@@H]4CC[C@H](Oc5c6ccccc6nc6ccccc56)[C@H]4CC[C@@H]3[C@H]2CC1', 'inactive'),
  ('Cc1cc(C2(c3cc(C)c(O)c4ncccc34)OC(=O)c3ccccc32)c2cccnc2c1O', 'active'),
  ('CCCCC1(NN=C2CCCCC2)C(=O)N(c2ccccc2)N(c2ccccc2)C1=O', 'inactive'),
  ('C=C1CC2(CCCC3(CC(=C)C(=O)O3)C2(C)C)OC1=O (stereo not drawn)', 'inactive'),
  ('CC(=C\c1ccccc1)/C=C(\C#N)C(N)=O', 'inactive');

---

Tested on: NCI-H460
Experiment: NCI tumour cell line growth inhibition, 48 h
The source made the active and inactive calls. Cut-off read from the data, not from the text of the source: active = GI50 up to about 1.1 µM and inactive = higher.
Below, each of the molecules is paired with its reported GI50 value.
measuredQuantity: GI50

INSERT INTO measurements (testsmiles, recordedmeasurement) VALUES
  ('CCNc1nnc(-c2nsc3ccccc23)s1', '33.2 µM (inactive)'),
  ('CC(=O)Nc1ccc(/C=C/[N+](=O)[O-])cc1', '7.21 µM (inactive)'),
  ('COc1cc(CC(=O)c2cc3c(cc2-c2ccccc2)OCO3)cc(OC)c1OC', '67.9 µM (inactive)'),
  ('O=C(CO)CC(=O)C(=O)Nc1cccc(C(F)(F)F)c1', '> 100 µM (inactive)');

---

Tested on: RXF 393
Assay: NCI tumour cell line growth inhibition, 48 h
Active and inactive are the calls of the source. No stated cut-off is given here; in the data, active = GI50 up to about 1.1 µM and inactive = higher.
Outcome codes: active, inactive

INSERT INTO assay_data (compound, systemname, classname) VALUES
  ('N#Cc1c(-c2ccc(F)cc2)c(-c2ccc(F)cc2)nn(CCO)c1=O', 'RXF 393', 'active'),
  ('Cc1ccc2c(c1)-c1c3c(nn1C)-c1ccccc1SC3O2 (centres undefined)', 'RXF 393', 'inactive'),
  ('C=CCOC(=O)CC[C@H](NC(=O)[C@@H](CCC(F)(F)F)Cc1ccc(O)cc1)C(=O)OCC=C', 'RXF 393', 'inactive'),
  ('COc1cc(CC(=O)c2cc3c(cc2-c2ccccc2)OCO3)cc(OC)c1OC', 'RXF 393', 'inactive');
